The reported numbers originate from patent US10544143B2.

Target: human TLR9 (Homo sapiens (Human), UniProt Q9NR96)
Sequence (Q9NR96 26-1032): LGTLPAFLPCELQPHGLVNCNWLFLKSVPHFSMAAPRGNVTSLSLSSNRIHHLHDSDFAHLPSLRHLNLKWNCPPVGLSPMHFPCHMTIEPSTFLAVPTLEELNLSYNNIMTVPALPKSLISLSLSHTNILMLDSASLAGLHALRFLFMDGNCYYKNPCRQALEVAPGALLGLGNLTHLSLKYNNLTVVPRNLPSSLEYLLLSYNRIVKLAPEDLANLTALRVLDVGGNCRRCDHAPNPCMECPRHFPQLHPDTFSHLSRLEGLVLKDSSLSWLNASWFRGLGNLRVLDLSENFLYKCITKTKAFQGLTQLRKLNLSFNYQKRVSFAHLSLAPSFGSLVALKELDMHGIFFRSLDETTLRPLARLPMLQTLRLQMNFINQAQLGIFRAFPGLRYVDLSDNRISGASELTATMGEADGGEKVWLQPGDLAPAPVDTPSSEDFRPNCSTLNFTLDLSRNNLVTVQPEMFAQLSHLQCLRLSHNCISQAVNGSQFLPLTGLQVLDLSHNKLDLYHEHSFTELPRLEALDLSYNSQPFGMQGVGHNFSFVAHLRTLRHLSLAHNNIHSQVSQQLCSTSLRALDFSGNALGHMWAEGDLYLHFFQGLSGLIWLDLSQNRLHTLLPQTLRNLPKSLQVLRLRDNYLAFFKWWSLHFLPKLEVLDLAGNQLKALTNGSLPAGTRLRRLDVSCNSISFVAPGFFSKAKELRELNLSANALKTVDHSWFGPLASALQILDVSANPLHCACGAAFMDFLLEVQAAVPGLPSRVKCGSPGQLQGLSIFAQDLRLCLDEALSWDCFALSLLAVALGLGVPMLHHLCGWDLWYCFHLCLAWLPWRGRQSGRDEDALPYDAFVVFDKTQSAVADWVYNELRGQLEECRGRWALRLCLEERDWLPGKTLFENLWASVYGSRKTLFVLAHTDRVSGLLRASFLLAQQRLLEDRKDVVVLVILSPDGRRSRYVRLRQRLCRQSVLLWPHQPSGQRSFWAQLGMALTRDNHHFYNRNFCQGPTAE
Experiment: TLR9 inhibition reporter assay (HEK-Blue SEAP);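 also: SEAP driven by an IFN-β minimal promoter with NF-κB and AP-1 sites, read after 22 h, compounds dosed 0.05 nM–50 µM, inhibition scaled between agonist plus DMSO and reference-inhibitor wells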
Settings: read-out: TLR9 IC50; HEK-Blue cells overexpressing human TLR9, ODN2006 5 nM stimulation, SEAP reporter
pIC50: −log10 of the molar value.
Property: pIC50

# count of solved cases: 3
COc1cc(-c2[nH]c3ccc(N4CCN(C(C)CO)CC4)nc3c2C(C)C)cn2ncnc12 (stereo not drawn) = 5.25
Cc1c(-c2[nH]c3ccc(N4CC(N(C)C5CCOCC5)C4)nc3c2C(C)C)cn2ncnc2c1C = 4.85
CC(C)c1c(-c2cn(C)c3ncccc23)[nH]c2ccc(N3CC(NCC(=O)N(C)C)C3)nc12 [Example 34] = 5.91

(A) COc1cc(-c2[nH]c3ccc(C4CCC(N(C)CCO)CC4)nc3c2C(C)C)cn2ncnc12 (stereo not drawn) [Example 191]
(B) Cc1cnc(CNC2CCC(c3ccc4[nH]c(-c5cn6ncnc6c(C)c5C)c(C(C)C)c4n3)CC2)cn1 (stereo not drawn) [Example 359]
(C) CC(C)c1c(-c2cn(C)c3ncncc23)[nH]c2ccc(C3CCC(NCCS(C)(=O)=O)CC3)nc12 (stereo not drawn)
(D) COc1cc(-c2[nH]c3cc(C)c(C4CCC(NCC(F)F)CC4)nc3c2C(C)C)cn2ncnc12 (stereo not drawn) [Example 324]
(E) CNC1CCC(c2nc3c(C(C)C)c(-c4cc(OC)c5ncnn5c4)[nH]c3cc2F)CC1 (stereo not drawn) [Example 347]
Number of molecules to sort: 5. Sort criterion: pIC50, ascending. Arrange the labels as the request states and list them.
D, B, E, C, A

(P) COc1cc(-c2[nH]c3cc(F)c(C4CCC(NC5COC5)CC4)nc3c2C(C)C)cn2ncnc12 (stereo not drawn) [Example 346]
(Q) CC(C)c1c(-c2cn(C)c3ncccc23)[nH]c2ccc(C3CCC(NCCS(C)(=O)=O)CC3)nc12 (stereo not drawn) [Example 247]
For the pair P and Q , which member has the lower pIC50 number? // caller expects the label of the chosen entry
P

(P) Cc1c(-c2[nH]c3ccc(N4CCN(CCC(N)=O)CC4)nc3c2C(C)C)cn2ncnc2c1C
(Q) CC(C)c1c(-c2cn(CCS(C)(=O)=O)c3ncccc23)[nH]c2ccc(C3CCC(NCC4(S(C)(=O)=O)CC4)CC3)nc12 (stereo not drawn) [Example 259]
Response body: label of entry with the larger pIC50; valid values P , Q . I would appreciate it if you answered with the label of your choice.
Q

----------
Target: UniProt:Q9NR96
Test: TLR9 inhibition reporter assay (HEK-Blue SEAP)
Settings: read-out: TLR9 IC50; HEK-Blue cells overexpressing human TLR9, ODN2006 5 nM stimulation, SEAP reporter
pIC50: −log10 of the molar value.
Property: pIC50

Examples with answers:
COc1cc(-c2[nH]c3cc(C)c(C4CCC(NC5COC5)CC4)nc3c2C(C)C)cn2ncnc12 (stereo not shown) [Example 316] = 5.52
Cc1ncc(CN(C)C2CCN(c3ccc4[nH]c(-c5cn6ncnc6c(C)c5C)c(C(C)C)c4n3)CC2)cn1 [Example 64] = 5.29
COc1cc(-c2[nH]c3cc(F)c(C4CCC(NCC5(C)COC5)CC4)nc3c2C(C)C)cn2ncnc12 (stereo not shown) [Example 342] = 5.72
CCN(C)C1CCC(c2nc3c(C(C)C)c(-c4cc(OC)c5ncnn5c4)[nH]c3cc2C)CC1 (stereo not shown) [Example 320] = 5.83
CNC1CCC(c2ccc3[nH]c(-c4cn(CCS(C)(=O)=O)c5ncccc45)c(C(C)C)c3n2)CC1 (stereo not shown) [Example 269] = 6.17

(1) CC(C)c1c(-c2cn(C)c3ncccc23)[nH]c2ccc(C3CCC(NC4COC4)CC3)nc12 (stereo not shown) [Example 184]
(2) COc1cc(-c2[nH]c3ccc(N4CCN(CCC(=O)N(C)C)CC4)nc3c2C(C)C)cn2ncnc12 [Example 136]
// compare measured pIC50, left 1 , right 2 , return larger To answer, give the label that identifies your chosen option.
1
